# tgt: cyno IL-6R on CHO-K1 cells (clone CyIL6R 405) (cynomolgus monkey; human-rhesus)
# protocolText: FMAT competition; competitor Reference IgG-A647; CHO cells with cyno IL-6R
valueKind: IC50 (nM)
Answer in nM, number only, no unit symbol.

# annotated cases, reported IC50 shown
binder="IL6RPMP103C7 (VHH) VHH: EVQLVESGGGLVQAGGSLSLSCATSGRTISDDTMAWFRQAPGKEREFVATITFSGARTHYSDSVRDRFTISRDNAKNTVYLQMDSLKSEDTAVYYCAASTKYYSSTYNYIHPAFYDIWGQGTQVTVSS" valuekind=IC50 testresult=75
binder="IL6RPMP105E1 (VHH) VHH: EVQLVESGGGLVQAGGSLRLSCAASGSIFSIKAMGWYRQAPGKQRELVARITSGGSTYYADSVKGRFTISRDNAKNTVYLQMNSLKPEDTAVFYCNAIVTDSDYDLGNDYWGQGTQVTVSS" valuekind=IC50 testresult=13

Problem: Requested field: IC50. Item: IL6RPMP103C4 (VHH) VHH: EVQLVESGGGLVEAGGSLRLSCAAAGRTLSSYSMAWFRQAPGKEREFVAIIRGNPSRTYHSDSVKGRFTASRDNAKNTVYLQMNRLEPEDTAVYYCAADPPPFASDYSAPQSYDYWGQGTQVTVSS
Solution: 30

Problem: Which IC50 value is on record for IL6RPMP120A5 (VHH) VHH: EVQLVESGGGLVQAGGSLSLSCATSGRTISDDTMAWFRQAPGKEREFVAIITFNGARTHYSDSVRDRFTISRDNAKNTVYLQMNSLKSEDTAVYYCAASTKYYSSTYNYIHPAFYDIWGQGTQVTVSS ?
Solution: 27
